Target: T1, ZFP SBS#980 (synthetic, UniProt P08047)
T1 chain: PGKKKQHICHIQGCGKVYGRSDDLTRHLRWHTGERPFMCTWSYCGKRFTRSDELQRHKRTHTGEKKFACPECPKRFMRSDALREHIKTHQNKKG
Test: EMSA
Conditions: tags: MBP fusion
quantity: Kd (nM)

binder: CTGGCGGCG (dsDNA) DNA 1: CTGGCGGCG DNA 2: CGCCGCCAG
quantity: Kd
value.measured: 2.2
